System: KM12 colon
Experiment: NCI tumour cell line growth inhibition, 48 h
Readout Label: TGI (µM)

In [3]: df
Out[3]:
                                   compound  qualifier_sign  result_value
0  Cc1ccsc1-c1ccc2c(c1)COC2(CCCN(C)C)c1ccc(F)cc1 (centres undefined)               =          10.9
1  COc1cc(C2CC(=O)Nc3c2c(C)nn3-c2nc3ccccc3[nH]2)cc(OC)c1O (centres undefined)               =          12.4
2  CC(=O)OCC1OC(n2ncc(=O)[nH]c2=O)C(OC(C)=O)C1OC(C)=O (centres undefined)               >           100
3  Cn1c(=O)c(Oc2ccc(F)cc2F)cc2cnc(NC3CCOCC3)nc21               >            25
4     C/C(=C\C(=N\NC(=N)N)c1ccccc1)c1ccccc1               =          3.67
5  CCCCCCCCCCCCCCCCCC(=O)OCC1OC(OC)C(NC(=O)N(CCCl)N=O)C(O)C1O (centres undefined)               =          67.9
6           CN(/N=C\c1ccnc2ccccc12)c1ccccc1               =          37.4
7  O=C1C(=O)N(c2ccc(Cl)cc2)C(=O)C(=Nc2cccc3c(=O)[nH][nH]c(=O)c23)C1c1nc2ccccc2o1 (centres undefined)               >           100
8  CC(=O)N[C@@H](Cc1ccc(OP(=O)(O)O)cc1)C(=O)N[C@H]1CCC(=O)N2CCC[C@@H](C(=O)NCc3ccccc3)N2C1=O               >            25

----------
Catalogue of TGI values
System: SN12C renal
Assay: NCI tumour cell line growth inhibition, 48 h
Readout Label: TGI

>>> df
                                   molecule  readout_label  result_value
0  CC(=O)Oc1ccc2cc(-c3ccc(OC(C)=O)c(OC(C)=O)c3)c(=O)oc2c1            TGI      > 100 µM
1  COc1cc(C2CC(=O)Nc3c2c(C)nn3-c2nc3ccccc3[nH]2)cc(OC)c1O (stereo not given)            TGI     > 72.3 µM
2  CC1(C)CCC(C)(C)c2cc(NC(=O)c3ccc(C(=O)O)cc3)ccc21            TGI         93 µM
3  O=C(c1ccccc1)c1nc2ccc(C(F)(F)F)cc2nc1N1CCN(c2ccccc2)CC1            TGI      > 100 µM
4  Cc1cn(C2CCN(CC3COC(C)(C)O3)O2)c(=O)[nH]c1=O (stereo not given)            TGI      > 100 µM
5  COc1cc(/C=C2\N=C(c3ccccc3)N(c3nc4ccc(Sc5ccccc5)cc4[nH]3)C2=O)cc(OC)c1OC            TGI       92.4 µM
6  O=C1c2c(Cl)c(Cl)c(Cl)c(Cl)c2C(=O)C2(Cl)CC=CCC12Cl (stereo not given)            TGI       3.22 µM
7        Nc1nn(C(=O)Nc2c(F)cccc2F)c2ccccc12            TGI      > 100 µM
8  NC(=O)Cn1c(=O)oc2cc(C(=O)CN3CCOCC3)ccc21            TGI      > 100 µM
9  CC1Cc2ccccc2N1C(=O)Cc1nc(N2CCOCC2)cc(=O)[nH]1 (stereo not given)            TGI      > 100 µM

----------
Test system: HOP-62 NSCLC
Test: NCI tumour cell line growth inhibition, 48 h
Readout Label: GI50

                                   compound  readout_label  result_value
0  Cc1ccccc1C(C(=O)NC1CCCCC1)N(C(=O)CNc1ccc(C#N)cc1)c1cccc(F)c1 (centres undefined)           GI50       3510 nM
1  COC(=O)c1oc2c(C(=O)/C=C/c3ccc(OC)cc3)c(OCCN3CCOCC3)ccc2c1C           GI50       2440 nM
2         NCCSC(c1ccccc1)(c1ccccc1)c1ccccc1           GI50       2430 nM
3  Cn1c(-c2c(N)n(Cc3ccc(F)cc3)c3nc(C#N)c(C#N)nc23)nc2ccccc21           GI50       2320 nM
4  COc1ccc(-c2cn(-c3cc(OC)c(OC)c(OC)c3)c(=O)[nH]2)cc1OC           GI50   > 100000 nM
5  CN(C)c1ccccc1[CH2][Ga]([Cl])[CH2]c1ccccc1N(C)C           GI50       1210 nM
6   COc1cc(CCC(=O)NC[C@@H](O)c2ccccc2)ccc1O           GI50   > 100000 nM
7  Cc1ccsc1-c1ccc2c(c1)COC2(CCCN(C)C)c1ccc(F)cc1 (centres undefined)           GI50       3160 nM
8           COC(=O)CNc1nc(N(C)O)nc(N(C)O)n1           GI50       2120 nM

----------
Tested on: NCI-H226 lung
Assay: NCI tumour cell line growth inhibition, 48 h
Readout Label: TGI (µM)

Compound	Unit Label	Qualifier Sign	Result Value
N#CC1=C(N)Oc2c(sc3c(Br)cccc23)C1c1ccc(Cl)cc1 (stereo not drawn)	µM	=	10.4
CC(=O)NC1COC(COC(=O)CCCCCCCCCCNC(=O)c2ccc([N+](=O)[O-])c3c(=O)c4ccccc4[nH]c23)C(O)C1OC(C)C(=O)NC(C(=O)NC(CCC(N)=O)C(=O)OCc1ccccc1)C(C)C (stereo not drawn)	µM	=	85.5
Cc1ccc(OCCOCCOCCOCCOCCOc2ccc(C)n(O)c2=S)c(=S)n1O	µM	=	14.7
O=c1c(-c2ccccc2)c(SCCN2CCOCC2)n(-c2ccccc2)c(=S)n1-c1ccccc1	µM	>	100
Cc1ccc2c3c1[C@@H]1O[C@@H]1c1cccc(c1-3)[C@@H]1O[C@H]21	µM	=	84.7
CCCC(=O)OC[n+]1ccc(-c2c(COC(=O)NC(C)C)c(COC(=O)NC(C)C)c3n2CCC3)cc1	µM	>	100
CC(=O)N[C@@H](Cc1ccc(OP(=O)(O)O)cc1)C(=O)N[C@H]1CCC(=O)N2CCC[C@@H](C(=O)NCc3ccccc3)N2C1=O	µM	>	25
Cc1ccc(C2=Nc3ccccc3S(=O)C(c3ccc4c(c3)OCO4)C2)cc1 (stereo not drawn)	µM	>	100

----------
System: RXF 393 renal
Assay: NCI tumour cell line growth inhibition, 48 h
Catalogue of TGI values
Readout Label: TGI

>>> print(df.to_string())
                                   compound  readout_label  result_value
0  CCCCCCCCCCOCCOCCOCCOCCCCC(O)CCCCCCCC1=C[C@H](C)OC1=O (stereo partly specified)            TGI       23.5 µM
1    O=C(O)CN(c1ccc(F)cc1)S(=O)(=O)c1ccccc1            TGI      > 100 µM
2  CCOc1cccc(-c2cc(=O)c3cc4c(cc3[nH]2)OCO4)c1            TGI       1.82 µM
3        O=c1[nH]c(=O)n(CCOCP(=O)(O)O)nc1Br            TGI      > 100 µM
4   COc1cc(CCC(=O)NC[C@@H](O)c2ccccc2)ccc1O            TGI      > 100 µM
5  O=C(O)c1ccc([C@@H]2C(=O)N(O)[C@@H]3C=CC[C@@H]32)cc1            TGI      > 100 µM

----------
Test system: RPMI-8226 leukemia
Assay: NCI tumour cell line growth inhibition, 48 h; in the data active = GI50 below about 0.43 µM; inactive = the rest
Classes used: class 1 for active, class 0 for inactive

In [3]: df
Out[3]:
                                   molecule  class_name
0  CC/C=C\C[C@H](O)C/C=C1/C(=O)C=C[C@@H]1C/C=C\CCCCO     class 0
1  C=C1CC2C3C=C(C)C4=CC(=O)CC[C@]4(C)C3CC[C@]2(C)[C@@]1(OC(C)=O)C(C)=O (stereo partly drawn)     class 0
2       NC(N)=Nc1ccc(/C=C2\C=Cc3ccccc32)cc1     class 0
3  Nc1ncn([C@H]2C[C@H](OP(=O)(O)OC[C@H]3O[C@@H](n4cnc5c(=O)[nH]c(N)nc54)C[C@@H]3O)[C@@H](CO)O2)c(=O)n1     class 0
4           COC(=O)CNc1nc(N(C)O)nc(N(C)O)n1     class 0
5  Cn1cc(C2=C(c3cn(CCCCCO)c4ccccc34)C(=O)NC2=O)c2ccccc21     class 0
6  O=C1c2cc(F)ccc2-c2c1c1ccc([N+](=O)[O-])cc1c(=O)n2CCCBr     class 0
7  O=C1CC(N2C(=O)/C(=C/C(Cl)=C\c3ccc([N+](=O)[O-])cc3)SC2=S)C(=O)N1c1ccc(O)cc1 (stereo not drawn)     class 1
